Listed here are molecules together with their documented pIC50.
# Tested on: apolipoprotein B
# procedure summary: Apolipoprotein B (apo B) inhibition test in cultured human liver cells (Hepg2-cells)
# Format: cell-based
# conditions used: concentration of the drug needed to reduce apoB secretion to 50% of the control, overnight at 37° C.
In textbook form, pIC50 equals minus log to base ten of the concentration in mol/L.

Below: 4 molecules and their reported pIC50.
{"molecule": "CCC(C)n1ncn(-c2ccc(N3CCN(c4ccc(OC[C@H]5CO[C@](CSc6nncn6CC(C)C)(c6ccc(Cl)cc6)O5)cc4)CC3)cc2)c1=O (relative stereo)", "pIC50": 7.10}
{"molecule": "CCC(C)n1ncn(-c2ccc(N3CCN(c4ccc(OC[C@@H]5CO[C@@](CSc6ncn(C(C)C)n6)(c6ccc(Cl)cc6)O5)cc4)CC3)cc2)c1=O (relative stereo)", "pIC50": 6.01}
{"molecule": "CCC(C)n1ncn(-c2ccc(N3CCN(c4ccc(OC[C@@H]5CO[C@@](CSc6nncn6C)(c6ccc(Cl)cc6)O5)cc4)CC3)cc2)c1=O (relative stereo)", "pIC50": 7.15}
{"molecule": "CCC(C)n1ccn(-c2ccc(N3CCN(c4ccc(OC[C@H]5CO[C@](CSc6nncn6C)(c6ccc(Cl)cc6)O5)cc4)CC3)cc2)c1=O (relative stereo)", "pIC50": 7.57}

Shifting focus to the molecule that follows.
Briefly, pIC50 measured for CC(C)Cn1ncn(-c2ccc(N3CCN(c4ccc(OC[C@@H]5CO[C@@](CSc6nncn6C)(c6ccc(Cl)cc6)O5)cc4)CC3)cc2)c1=O (relative stereo) : 6.85

----------
# System: apolipoprotein B
# procedure summary: Apolipoprotein B (apo B) inhibition test in cultured human liver cells (Hepg2-cells)
# Format: cell-based
# conditions used: concentration of the drug needed to reduce apoB secretion to 50% of the control, overnight at 37° C.
Listed here are compounds together with their documented pIC50.
In textbook form, pIC50 equals minus log to base ten of the concentration in mol/L.

{"compound": "CCC(C)n1ncn(-c2ccc(N3CCN(c4ccc(OC[C@H]5CO[C@](CSc6ccccn6)(c6ccc(Cl)cc6)O5)cc4)CC3)cc2)c1=O (relative stereo) [Compound 105]", "observed value": 7.00}
{"compound": "Cn1cnnc1SC[C@@]1(c2ccc(F)cc2)OC[C@@H](COc2ccc(N3CCN(c4ccc(-n5cnn(C6CCCC6)c5=O)cc4)CC3)cc2)O1 (relative stereo) [Compound 35]", "observed value": 7.11}
{"compound": "CCC(C)n1ncn(-c2ccc(N3CCN(c4ccc(OC[C@H]5CO[C@](CSc6ncnn6C)(c6ccc(Cl)cc6)O5)cc4)CC3)cc2)c1=O (relative stereo) [Compound 60]", "observed value": 7.34}
{"compound": "CCC(C)n1ncn(-c2ccc(N3CCN(c4ccc(OC[C@H]5CO[C@](CSc6nnnn6-c6ccccc6)(c6ccc(Cl)cc6)O5)cc4)CC3)cc2)c1=O (relative stereo) [Compound 89]", "observed value": 6.29}
{"compound": "CCCCCn1ncn(-c2ccc(N3CCN(c4ccc(OC[C@@H]5CO[C@@](CSc6nncn6C)(c6ccc(Cl)cc6)O5)cc4)CC3)cc2)c1=O (relative stereo) [Compound 32]", "observed value": 6.74}
{"compound": "Cn1cnnc1SC[C@@]1(c2ccc(Cl)cc2)OC[C@@H](COc2ccc(N3CCN(c4ccc(-n5ncn(C6CCCC6)c5=O)cc4)CC3)cc2)O1 (relative stereo) [Compound 6]", "observed value": 6.92}
{"compound": "CCC(C)n1ncn(-c2ccc(N3CCN(c4ccc(OC[C@H]5CO[C@](CSc6nccs6)(c6ccc(Cl)cc6)O5)cc4)CC3)cc2)c1=O (relative stereo) [Compound 108]", "observed value": 7.59}
{"compound": "Cn1ncnc1SC[C@]1(c2ccc(F)cc2F)OC[C@H](COc2ccc(N3CCN(c4ccc(-n5cnn(C6CCCC6)c5=O)cc4)CC3)cc2)O1 (relative stereo) [Compound 67]", "observed value": 6.74}

Shifting focus to the compound that follows.
Briefly, pIC50 measured for Cn1cnnc1SC[C@@]1(c2ccc(Cl)cc2)OC[C@@H](COc2ccc(N3CCN(c4ccc(-n5cnn(C6CCCC6)c5=O)cc4)CC3)cc2)O1 (relative stereo) [Compound 24] : 7.24

----------
# Tested on: apolipoprotein B
# procedure summary: Apolipoprotein B (apo B) inhibition test in cultured human liver cells (Hepg2-cells)
# Type: cell-based
# conditions used: concentration of the drug needed to reduce apoB secretion to 50% of the control, overnight at 37° C.
measured property: pIC50
In textbook form, pIC50 equals minus log to base ten of the concentration in mol/L.

{"molecule": "CC(C)n1cnn(-c2ccc(N3CCN(c4ccc(OC[C@@H]5CO[C@@](CSc6nncn6C)(c6ccc(F)cc6)O5)cc4)CC3)cc2)c1=O (relative stereo)", "measured property": "pIC50", "observed value": 6.59}
{"molecule": "Cn1cnnc1SC[C@]1(c2ccc(F)cc2)OC[C@H](COc2ccc(N3CCN(c4ccc(-n5ccn(C6CCCC6)c5=O)cc4)CC3)cc2)O1 (relative stereo)", "measured property": "pIC50", "observed value": 6.74}
{"molecule": "CC[C@@H](C)n1ncn(-c2ccc(N3CCN(c4ccc(OC[C@@H]5CO[C@@](CSc6nncn6C)(c6ccc(Cl)cc6)O5)cc4)CC3)cc2)c1=O", "measured property": "pIC50", "observed value": 7.64}
{"molecule": "CCC(C)n1ncn(-c2ccc(N3CCN(c4ccc(OC[C@H]5CO[C@](CSc6nnc(C)n6C)(c6ccc(Cl)cc6)O5)cc4)CC3)cc2)c1=O (relative stereo)", "measured property": "pIC50", "observed value": 6.64}
{"molecule": "CCC(CC)n1ccn(-c2ccc(N3CCN(c4ccc(OC[C@H]5CO[C@](CSc6nncn6C)(c6ccc(Cl)cc6)O5)cc4)CC3)cc2)c1=O (relative stereo)", "measured property": "pIC50", "observed value": 7.06}

Briefly, pIC50 measured for CCC(C)n1ncn(-c2ccc(N3CCN(c4ccc(OC[C@@H]5CO[C@@](CSc6nncn6C)(c6ccc(F)cc6)O5)cc4)CC3)cc2)c1=O (relative stereo) : 7.01

Briefly, pIC50 measured for CCC(C)n1cnn(-c2ccc(N3CCN(c4ccc(OC[C@H]5CO[C@](CSc6ncnn6C)(c6ccc(F)cc6F)O5)cc4)CC3)cc2)c1=O (relative stereo) : 6.92

Briefly, pIC50 measured for CC(C)n1cnn(-c2ccc(N3CCN(c4ccc(OC[C@@H]5CO[C@@](CSc6nncn6C)(c6ccc(Cl)cc6)O5)cc4)CC3)cc2)c1=O (relative stereo) : 7.04

Briefly, pIC50 measured for CCC(C)n1ncn(-c2ccc(N3CCN(c4ccc(OC[C@H]5CO[C@](CSc6ncnn6C)(c6ccc(F)cc6)O5)cc4)CC3)cc2)c1=O (relative stereo) : 7.34

----------
# Tested on: apolipoprotein B
# procedure summary: Apolipoprotein B (apo B) inhibition test in cultured human liver cells (Hepg2-cells)
# Type: cell-based
# conditions used: concentration of the drug needed to reduce apoB secretion to 50% of the control, overnight at 37° C.
Listed here are compounds together with their documented pIC50.
In textbook form, pIC50 equals minus log to base ten of the concentration in mol/L.

{"compound": "CCCn1cnnc1SC[C@]1(c2ccc(Cl)cc2)OC[C@H](COc2ccc(N3CCN(c4ccc(-n5cnn(C(C)CC)c5=O)cc4)CC3)cc2)O1 (relative stereo) [Compound 55]", "measured property": "pIC50", "observed value": 7.11}
{"compound": "CCCn1ncnc1SC[C@]1(c2ccc(Cl)cc2)OC[C@H](COc2ccc(N3CCN(c4ccc(-n5cnn(C(C)CC)c5=O)cc4)CC3)cc2)O1 (relative stereo) [Compound 80]", "measured property": "pIC50", "observed value": 7.14}
{"compound": "CCC(CC)n1cnn(-c2ccc(N3CCN(c4ccc(OC[C@H]5CO[C@](CSc6ncnn6C)(c6ccc(F)cc6)O5)cc4)CC3)cc2)c1=O (relative stereo) [Compound 75]", "measured property": "pIC50", "observed value": 6.92}
{"compound": "Cn1ncnc1SC[C@]1(c2ccc(F)cc2F)OC[C@H](COc2ccc(N3CCN(c4ccc(-n5ncn(C6CCCC6)c5=O)cc4)CC3)cc2)O1 (relative stereo) [Compound 72]", "measured property": "pIC50", "observed value": 6.72}
{"compound": "CCC(C)n1ncn(-c2ccc(N3CCN(c4ccc(OC[C@H]5CO[C@](CSc6ccncc6)(c6ccc(Cl)cc6)O5)cc4)CC3)cc2)c1=O (relative stereo) [Compound 106]", "measured property": "pIC50", "observed value": 6.06}

Shifting focus to the compound that follows.
Briefly, pIC50 measured for Cn1cnnc1SC[C@@]1(c2ccc(F)cc2F)OC[C@@H](COc2ccc(N3CCN(c4ccc(-n5ncn(C6CCCC6)c5=O)cc4)CC3)cc2)O1 (relative stereo) [Compound 13] : 6.29

----------
# Tested on: apolipoprotein B
# procedure summary: Apolipoprotein B (apo B) inhibition test in cultured human liver cells (Hepg2-cells)
# Type: cell-based
# conditions used: concentration of the drug needed to reduce apoB secretion to 50% of the control, overnight at 37° C.
measured property: pIC50
In textbook form, pIC50 equals minus log to base ten of the concentration in mol/L.

Below: 4 compounds and their reported pIC50.
{"compound": "CCCCn1ncnc1SC[C@]1(c2ccc(Cl)cc2)OC[C@H](COc2ccc(N3CCN(c4ccc(-n5cnn(C(C)CC)c5=O)cc4)CC3)cc2)O1 (relative stereo)", "observed value": 7.34}
{"compound": "Cn1ncnc1SC[C@]1(c2ccc(F)cc2)OC[C@H](COc2ccc(N3CCN(c4ccc(-n5cnn(C6CCCC6)c5=O)cc4)CC3)cc2)O1 (relative stereo)", "observed value": 6.89}
{"compound": "CCC(C)n1ncn(-c2ccc(N3CCN(c4ccc(OC[C@H]5CO[C@](CSc6nncn6C(C)C)(c6ccc(Cl)cc6)O5)cc4)CC3)cc2)c1=O (relative stereo)", "observed value": 6.60}
{"compound": "CCC(C)n1cnn(-c2ccc(N3CCN(c4ccc(OC[C@H]5CO[C@](CSc6nccs6)(c6ccc(Cl)cc6)O5)cc4)CC3)cc2)c1=O (relative stereo)", "observed value": 7.57}

Briefly, pIC50 measured for CC(C)Cn1cnn(-c2ccc(N3CCN(c4ccc(OC[C@H]5CO[C@](CSc6nccs6)(c6ccc(Cl)cc6)O5)cc4)CC3)cc2)c1=O (relative stereo) : 7.21

Briefly, pIC50 measured for CCC(C)n1cnn(-c2ccc(N3CCN(c4ccc(OC[C@H]5CO[C@](CSc6ncnn6C)(c6ccc(Cl)cc6)O5)cc4)CC3)cc2)c1=O (relative stereo) : 7.59

Briefly, pIC50 measured for CCC(C)N1CCN(c2ccc(N3CCN(c4ccc(OC[C@H]5CO[C@](CSc6nncn6C)(c6ccc(Cl)cc6)O5)cc4)CC3)cc2)C1=O (relative stereo) : 6.72

Briefly, pIC50 measured for CCC(C)n1ncn(-c2ccc(N3CCN(c4ccc(OC[C@H]5CO[C@](CSc6ncn[nH]6)(c6ccc(Cl)cc6)O5)cc4)CC3)cc2)c1=O (relative stereo) : 7.62

Briefly, pIC50 measured for CCCCCn1cnn(-c2ccc(N3CCN(c4ccc(OC[C@@H]5CO[C@@](CSc6nncn6C)(c6ccc(Cl)cc6)O5)cc4)CC3)cc2)c1=O (relative stereo) : 7.39

Briefly, pIC50 measured for CCC(C)n1ncn(-c2ccc(N3CCN(c4ccc(OC[C@H]5CO[C@](CSc6ncnn6C)(c6ccc(F)cc6F)O5)cc4)CC3)cc2)c1=O (relative stereo) : 6.72

Briefly, pIC50 measured for CCC(CC)n1ncn(-c2ccc(N3CCN(c4ccc(OC[C@H]5CO[C@](CSc6ncnn6C)(c6ccc(F)cc6)O5)cc4)CC3)cc2)c1=O (relative stereo) : 6.80
